Attribution: patent US20200308290A1

tested system: T1, human CD25 on cells (human, UniProt P01589 22-272)
T1 sequence (looked up): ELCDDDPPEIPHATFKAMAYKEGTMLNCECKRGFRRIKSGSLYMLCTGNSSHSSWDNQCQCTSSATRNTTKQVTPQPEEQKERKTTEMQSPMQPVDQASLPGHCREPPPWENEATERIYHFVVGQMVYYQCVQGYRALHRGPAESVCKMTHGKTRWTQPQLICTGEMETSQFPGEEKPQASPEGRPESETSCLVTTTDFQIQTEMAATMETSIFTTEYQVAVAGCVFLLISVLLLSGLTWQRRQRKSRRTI
measurement protocol: cell-based or functional assay
recorded endpoint: Kit225 (fold improvement in inhibition of IL2-induced Kit225 proliferation) (fold)
Value expressed in fold; do not type the unit.

Exam item: Look up Kit225 (fold improvement in inhibition of IL2-induced Kit225 proliferation) for this binder: Variant C38 (antibody, name in Kabat numbering, V domains shown, Isotype as printed: G2M3.QL) VH: QVQLVQSGAEVKKPGSSVKVSCKASGYTFTSYRMHWVRQAPGQGLEWMGYISPRKGYTEYNQKFKDKATITADESTNTAYMELSSLRSEDTAVYYCARGGGVFDYWGQGTLVTVSS VL: DIQMTQSPSTLSASVGDRVTITCSASSSISYMHWYQQKPGKAPKLLIYTTSNLASGVPARFSGSGSGTEFTLTISSLQPDDFATYYCHQRSTYPLTFGQGTKVEVK
Marked response: 3.6
